// data source = the RNAGym collection of RNA variant scans (doi:10.1073/pnas.2313332121)

B1: TPR 5TU (parent)
chain: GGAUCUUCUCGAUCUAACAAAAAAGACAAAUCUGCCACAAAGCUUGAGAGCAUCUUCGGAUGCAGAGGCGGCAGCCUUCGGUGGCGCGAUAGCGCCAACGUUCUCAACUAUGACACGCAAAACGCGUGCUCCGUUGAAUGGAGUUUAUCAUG

Variants of: B1
Test: polymerase ribozyme fitness, log enrichment relative to wild type (log ratio); higher = more active; in vitro selection for triplet polymerase activity
Variants at the floor of the assay were thinned out.
Assay Metric: polymerase ribozyme fitness (log ratio)

1. C57G G58A A91G | -3.24
2. C14A U101G | -1.35
3. A21U U33G A122U U144G | -3.94
4. A113U G124C | -3.17
5. U31G C54A C95A A142U | -3.34
6. A22U U135C | -1.64
7. A52C A122G | -1.4
8. U6A U55G | -0.118
9. C57A G83C G141A | -0.777
10. U13G A52G | -1.06
11. G84C C95A A142C | -1.65
12. A22U U127A | -3.54
13. U31A C131A | -1.89
14. C96U G143C | -3.12
15. G59A C93A | -3.22
16. C54G U109C C116U C131U A147U | -1.86
17. A26U C96U A142C | -3.03
18. G58C U82G C132A | -2.83
19. C27U | -1.13
20. C32U C93A | -4.11
21. U61A A142G | -1.25
22. C36A U82A A98G | -4.01
23. G86U U102G A150U | -3.59
24. U15A A60G G80U C96U A122C | -1.4
25. A12C C27U G34U C63U C93A | -4.1
26. U15C C36G | -3.28
27. U45G G83A | -0.848
28. G48C C99U | -1.72
29. C76A C123U U134A | -1.5
30. G86A G143A | -1.25
31. C85A U144C | -0.693
32. U31A G86U | -0.886
33. C87U A106G U139C | -3.59
34. U31G U55A A142U | -1.54
35. U31A A73C | -4.13
36. C38U A89G | -1.07
37. G59A A147U | 1.25
38. A37C A52C G84A | -3.24
39. C69A G71U | -0.808
40. G25C C54A C105U | -3.21
41. A16G A17U A41U C93U C125U U134G | -4.05
42. G126U G152U | -2.47
43. A16G U53G G84U C96G | -3.88
44. U61A C96G U109A | -3.32
45. A41C C93G | -3.5
46. C8U G83U | -3.5
47. U82A C93G | -3.41
48. A23C A39C C76A A97G G143C | -3.82
49. A29U | -3.4
50. C51G U56A G117U | -2.86
51. C8U G58C | -2.7
52. G92U | -0.671
53. A20U G81C A147U | -0.168
54. C14A A52G C85U A113C | -4.15
